meta.source: PubChem BioAssay AID2060893

# Tested on: K86415-001-R-J1-PDC complex spheroids, viability
# assay info: Anticancer human tumor K86415-001-R-J1-PDC patient-derived lung adenocarcinoma cell line growth inhibition [RAS]; active means viability on the fitted dose curve at most 10% of control; inactive means the rest
# condition info: second compound 0.00949 µM; first compound 1 µM
Labels: active, inactive

>>> class_label("CCN1CCN(Cc2ccc(Nc3ncc(F)c(-c4cc(F)c5nc(C)n(C(C)C)c5c4)n3)nc2)CC1 + CCn1c(-c2cc(N3CCN(C)CC3)cnc2C(C)OC)c2c3cc(ccc31)-c1csc(n1)CC(NC(=O)C1CC1C)C(=O)N1CCCC(N1)C(=O)OCC(C)(C)C2")
"inactive"
>>> class_label("CC1(O)CCCC1n1c(=O)c(C(F)F)cc2cnc(NC3CCN(S(C)(=O)=O)CC3)nc21 (stereo not given) + CCn1c(-c2cccnc2C(C)OC)c2c3cc(ccc31)N1CCOC(CC(NC(=O)C(C(C)C)N(C)C(=O)C3(F)CCN(C(=O)C#CC(C)(C)N(C)C)CC3)C(=O)N3CCCC(N3)C(=O)OCC(C)(C)C2)C1")
"inactive"
>>> class_label("Nc1ccn(C2OC(CO)C(O)C2(F)F)c(=O)n1 (stereo not given) + CCn1c(-c2cc(N3CCN(C)CC3)cnc2C(C)OC)c2c3cc(ccc31)-c1csc(n1)CC(NC(=O)C1CC1C)C(=O)N1CCCC(N1)C(=O)OCC(C)(C)C2")
"inactive"
>>> class_label("CC(C)NCC(C(=O)N1CCN(c2ncnc3c2C(C)CC3O)CC1)c1ccc(Cl)cc1 (stereo not given) + CCn1c(-c2cccnc2C(C)OC)c2c3cc(ccc31)N1CCOC(CC(NC(=O)C(C(C)C)N(C)C(=O)C3(F)CCN(C(=O)C#CC(C)(C)N(C)C)CC3)C(=O)N3CCCC(N3)C(=O)OCC(C)(C)C2)C1")
"active"
>>> class_label("CC(C)NCC(C(=O)N1CCN(c2ncnc3c2C(C)CC3O)CC1)c1ccc(Cl)cc1 (stereo not given) + CCn1c(-c2cc(N3CCN(C)CC3)cnc2C(C)OC)c2c3cc(ccc31)-c1csc(n1)CC(NC(=O)C1CC1C)C(=O)N1CCCC(N1)C(=O)OCC(C)(C)C2")
"active"
>>> class_label("CC(=O)OC12COC1CC(O)C1(C)C(=O)C(O)C3=C(C)C(OC(=O)C(O)C(NC(=O)OC(C)(C)C)c4ccccc4)CC(O)(C(OC(=O)c4ccccc4)C21)C3(C)C (stereo not given) + CCn1c(-c2cc(N3CCN(C)CC3)cnc2C(C)OC)c2c3cc(ccc31)-c1csc(n1)CC(NC(=O)C1CC1C)C(=O)N1CCCC(N1)C(=O)OCC(C)(C)C2")
"active"
>>> class_label("C[C@@H](NC(=O)c1ncnc(N)c1Cl)c1ncc(C(=O)Nc2cc(C(F)(F)F)c(Cl)cn2)s1 + CCn1c(-c2cc(N3CCN(C)CC3)cnc2C(C)OC)c2c3cc(ccc31)-c1csc(n1)CC(NC(=O)C1CC1C)C(=O)N1CCCC(N1)C(=O)OCC(C)(C)C2")
"inactive"
>>> class_label("Cc1nc(N2CCC3(CC2)COC(C)C3N)c(CO)nc1Sc1ccnc(N)c1Cl (stereo not given) + CCn1c(-c2cc(N3CCN(C)CC3)cnc2C(C)OC)c2c3cc(ccc31)-c1csc(n1)CC(NC(=O)C1CC1C)C(=O)N1CCCC(N1)C(=O)OCC(C)(C)C2")
"active"
>>> class_label("C=CC(=O)N1CCN(c2nc(OCC3CCCN3C)nc3c(F)c(-c4nc(N)cc(C)c4C(F)(F)F)c(Cl)cc23)C(C)C1 (stereo not given) + CCn1c(-c2cc(N3CCN(C)CC3)cnc2C(C)OC)c2c3cc(ccc31)-c1csc(n1)CC(NC(=O)C1CC1C)C(=O)N1CCCC(N1)C(=O)OCC(C)(C)C2")
"active"
>>> class_label("CCC(CC)c1cc(NC2CCC(N)C2)n2nccc2n1 (stereo not given) + CCn1c(-c2cccnc2C(C)OC)c2c3cc(ccc31)N1CCOC(CC(NC(=O)C(C(C)C)N(C)C(=O)C3(F)CCN(C(=O)C#CC(C)(C)N(C)C)CC3)C(=O)N3CCCC(N3)C(=O)OCC(C)(C)C2)C1")
"inactive"
>>> class_label("CC(Nc1ccc2c(c1)OCCn1cc(N3C(=O)OCC3C(F)F)nc1-2)C(N)=O (stereo not given) + CCn1c(-c2cccnc2C(C)OC)c2c3cc(ccc31)N1CCOC(CC(NC(=O)C(C(C)C)N(C)C(=O)C3(F)CCN(C(=O)C#CC(C)(C)N(C)C)CC3)C(=O)N3CCCC(N3)C(=O)OCC(C)(C)C2)C1")
"active"
>>> class_label("C=CC(=O)Nc1cc(Nc2nccc(-c3cn(C)c4ccccc34)n2)c(OC)cc1N(C)CCN(C)C + CCn1c(-c2cccnc2C(C)OC)c2c3cc(ccc31)N1CCOC(CC(NC(=O)C(C(C)C)N(C)C(=O)C3(F)CCN(C(=O)C#CC(C)(C)N(C)C)CC3)C(=O)N3CCCC(N3)C(=O)OCC(C)(C)C2)C1")
"active"
>>> class_label("CC(Nc1ccc2c(c1)OCCn1cc(N3C(=O)OCC3C(F)F)nc1-2)C(N)=O (stereo not given) + CCn1c(-c2cc(N3CCN(C)CC3)cnc2C(C)OC)c2c3cc(ccc31)-c1csc(n1)CC(NC(=O)C1CC1C)C(=O)N1CCCC(N1)C(=O)OCC(C)(C)C2")
"active"
>>> class_label("CCN1CCN(Cc2ccc(Nc3ncc(F)c(-c4cc(F)c5nc(C)n(C(C)C)c5c4)n3)nc2)CC1 + CCn1c(-c2cccnc2C(C)OC)c2c3cc(ccc31)N1CCOC(CC(NC(=O)C(C(C)C)N(C)C(=O)C3(F)CCN(C(=O)C#CC(C)(C)N(C)C)CC3)C(=O)N3CCCC(N3)C(=O)OCC(C)(C)C2)C1")
"inactive"
>>> class_label("C[C@@H](NC(=O)c1ncnc(N)c1Cl)c1ncc(C(=O)Nc2cc(C(F)(F)F)c(Cl)cn2)s1 + CCn1c(-c2cccnc2C(C)OC)c2c3cc(ccc31)N1CCOC(CC(NC(=O)C(C(C)C)N(C)C(=O)C3(F)CCN(C(=O)C#CC(C)(C)N(C)C)CC3)C(=O)N3CCCC(N3)C(=O)OCC(C)(C)C2)C1")
"inactive"

---

# System: K86415-001-R-J1-PDC complex spheroids, viability
# assay info: Anticancer human tumor K86415-001-R-J1-PDC cell line growth inhibition [RAS];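 further: spheroids exposed to agents for seven days before readout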
# condition info: second compound 0.3 µM; first compound 10 µM; hits give low values
viability, T/C less than 3% is Fulfilled; viability, T/C greater than or equal to 3% is Not fulfilled.

>>> class_label("CCC(CC)c1cc(NC2CCC(N)C2)n2nccc2n1 (stereo not given) + CCn1c(-c2cc(N3CCN(C)CC3)cnc2C(C)OC)c2c3cc(ccc31)-c1csc(n1)CC(NC(=O)C1CC1C)C(=O)N1CCCC(N1)C(=O)OCC(C)(C)C2")
"Not fulfilled"
>>> class_label("C[C@@H](NC(=O)c1ncnc(N)c1Cl)c1ncc(C(=O)Nc2cc(C(F)(F)F)c(Cl)cn2)s1 + CCn1c(-c2cccnc2C(C)OC)c2c3cc(ccc31)N1CCOC(CC(NC(=O)C(C(C)C)N(C)C(=O)C3(F)CCN(C(=O)C#CC(C)(C)N(C)C)CC3)C(=O)N3CCCC(N3)C(=O)OCC(C)(C)C2)C1")
"Not fulfilled"
>>> class_label("Cc1nc(N2CCC3(CC2)COC(C)C3N)c(CO)nc1Sc1ccnc(N)c1Cl (stereo not given) + CCn1c(-c2cccnc2C(C)OC)c2c3cc(ccc31)N1CCOC(CC(NC(=O)C(C(C)C)N(C)C(=O)C3(F)CCN(C(=O)C#CC(C)(C)N(C)C)CC3)C(=O)N3CCCC(N3)C(=O)OCC(C)(C)C2)C1")
"Fulfilled"
>>> class_label("NC1c2ccccc2OC12CCN(c1cnc3c(N4CCCc5ncccc54)n[nH]c3n1)CC2 (stereo not given) + CCn1c(-c2cc(N3CCN(C)CC3)cnc2C(C)OC)c2c3cc(ccc31)-c1csc(n1)CC(NC(=O)C1CC1C)C(=O)N1CCCC(N1)C(=O)OCC(C)(C)C2")
"Not fulfilled"
>>> class_label("CC(C)NCC(C(=O)N1CCN(c2ncnc3c2C(C)CC3O)CC1)c1ccc(Cl)cc1 (stereo not given) + CCn1c(-c2cccnc2C(C)OC)c2c3cc(ccc31)N1CCOC(CC(NC(=O)C(C(C)C)N(C)C(=O)C3(F)CCN(C(=O)C#CC(C)(C)N(C)C)CC3)C(=O)N3CCCC(N3)C(=O)OCC(C)(C)C2)C1")
"Fulfilled"
>>> class_label("CC(Nc1ccc2c(c1)OCCn1cc(N3C(=O)OCC3C(F)F)nc1-2)C(N)=O (stereo not given) + CCn1c(-c2cc(N3CCN(C)CC3)cnc2C(C)OC)c2c3cc(ccc31)-c1csc(n1)CC(NC(=O)C1CC1C)C(=O)N1CCCC(N1)C(=O)OCC(C)(C)C2")
"Fulfilled"
>>> class_label("CCC(CC)c1cc(NC2CCC(N)C2)n2nccc2n1 (stereo not given) + CCn1c(-c2cccnc2C(C)OC)c2c3cc(ccc31)N1CCOC(CC(NC(=O)C(C(C)C)N(C)C(=O)C3(F)CCN(C(=O)C#CC(C)(C)N(C)C)CC3)C(=O)N3CCCC(N3)C(=O)OCC(C)(C)C2)C1")
"Not fulfilled"
>>> class_label("Cc1nc(N2CCC3(CC2)COC(C)C3N)c(CO)nc1Sc1ccnc(N)c1Cl (stereo not given) + CCn1c(-c2cc(N3CCN(C)CC3)cnc2C(C)OC)c2c3cc(ccc31)-c1csc(n1)CC(NC(=O)C1CC1C)C(=O)N1CCCC(N1)C(=O)OCC(C)(C)C2")
"Fulfilled"
>>> class_label("NC1c2ccccc2OC12CCN(c1cnc3c(N4CCCc5ncccc54)n[nH]c3n1)CC2 (stereo not given) + CCn1c(-c2cccnc2C(C)OC)c2c3cc(ccc31)N1CCOC(CC(NC(=O)C(C(C)C)N(C)C(=O)C3(F)CCN(C(=O)C#CC(C)(C)N(C)C)CC3)C(=O)N3CCCC(N3)C(=O)OCC(C)(C)C2)C1")
"Fulfilled"
>>> class_label("CC(Nc1ccc2c(c1)OCCn1cc(N3C(=O)OCC3C(F)F)nc1-2)C(N)=O (stereo not given) + CCn1c(-c2cccnc2C(C)OC)c2c3cc(ccc31)N1CCOC(CC(NC(=O)C(C(C)C)N(C)C(=O)C3(F)CCN(C(=O)C#CC(C)(C)N(C)C)CC3)C(=O)N3CCCC(N3)C(=O)OCC(C)(C)C2)C1")
"Fulfilled"
